The reported measurements were obtained from patent US20250376472A1.

Target or test system: AgrA (Staphylococcus aureus, UniProt P0A0I7)
Construct: endogenous in cells; host or cells: S. aureus USA300 strain UAMS-1625 carrying a P3-lacZ reporter plasmid
Sequence (P0A0I7 whole entry): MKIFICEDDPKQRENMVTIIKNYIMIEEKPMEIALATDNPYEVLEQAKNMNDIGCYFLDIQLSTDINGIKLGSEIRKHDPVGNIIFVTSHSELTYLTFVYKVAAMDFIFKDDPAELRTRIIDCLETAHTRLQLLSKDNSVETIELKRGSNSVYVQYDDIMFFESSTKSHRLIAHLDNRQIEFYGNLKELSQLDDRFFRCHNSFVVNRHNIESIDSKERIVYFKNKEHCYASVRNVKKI
Assay remarks: cell-based
Set-up: species or system S. aureus
Condition set: IC50 at 40 mg/mL HSA, LB medium supplemented with human serum albumin 40 mg/mL
pIC50: −log10 of the molar value.
Parameter measured: pIC50

pIC50 in this record for `Cc1ccc(S(=O)(=O)c2nnn3c2[nH]c(=O)c2ccc(N4CCN(CC(=O)NC5CNC5)CC4)cc23)c(C)c1` : 4.04 to 4.74

pIC50 in this record for `Cc1ccc(S(=O)(=O)c2nnn3c2[nH]c(=O)c2ccc(N4CCN(CC(=O)N5CCN(C6CC6)CC5)CC4)cc23)c(C)c1` : > 4.78

pIC50 in this record for `Cc1ccc(S(=O)(=O)c2nnn3c2[nH]c(=O)c2ccc(N4CCCN(CC(=O)NCc5ccccc5)CC4)cc23)c(C)c1` : 4.08 to 4.78

pIC50 in this record for `CCCNC(=O)CN1CCCN(c2ccc3c(=O)[nH]c4c(S(=O)(=O)c5ccc(C)cc5C)nnn4c3c2)CC1` : 4.04 to 4.74

----------
Target or test system: AgrA (Staphylococcus aureus, UniProt P0A0I7)
Construct: endogenous in cells; host or cells: S. aureus USA300 strain UAMS-1625 carrying a P3-lacZ reporter plasmid
Assay remarks: cell-based
Set-up: species or system S. aureus
Condition set: IC50 at 40 mg/mL HSA, LB medium supplemented with human serum albumin 40 mg/mL
pIC50: −log10 of the molar value.
Parameter measured: pIC50

pIC50 in this record for `Cc1ccc(S(=O)(=O)c2nnn3c2[nH]c(=O)c2ccc(N4CCN(CC(=O)NCCCN5CCCC5=O)CC4)cc23)c(C)c1` : 4.09 to 4.79

pIC50 in this record for `Cc1ccc(S(=O)(=O)c2nnn3c2[nH]c(=O)c2ccc(N4CCN(CC(=O)N5CCC(N)CC5)CC4)cc23)c(C)c1` : > 4.76

pIC50 in this record for `Cc1ccc(S(=O)(=O)c2nnn3c2[nH]c(=O)c2ccc(N4CCCN(CC(=O)Nc5ccccc5)CC4)cc23)c(C)c1` : 4.07 to 4.77

pIC50 in this record for `Cc1ccc(S(=O)(=O)c2nnn3c2[nH]c(=O)c2ccc(N4CCN(CC(=O)NC5CCCC5)CC4)cc23)c(C)c1` : > 4.75

pIC50 in this record for Cc1ccc(S(=O)(=O)c2nnn3c2[nH]c(=O)c2ccc(N4CCN(CC(=O)NC5CCC(N(C)C)CC5)CC4)cc23)c(C)c1 (stereo not shown) : 4.09 to 4.79

pIC50 in this record for `Cc1ccc(S(=O)(=O)c2nnn3c2[nH]c(=O)c2ccc(N4CCN(CC(=O)NCCn5ccnc5)CC4)cc23)c(C)c1` : 4.07 to 4.77

pIC50 in this record for `Cc1ccc(S(=O)(=O)c2nnn3c2[nH]c(=O)c2ccc(N4CCN(CC(=O)NCCN5CCCC5)CC4)cc23)c(C)c1` : 4.07 to 4.77

pIC50 in this record for Cc1ccc(S(=O)(=O)c2nnn3c2[nH]c(=O)c2ccc(N4CCN(CC(=O)NC5CCC(O)CC5)CC4)cc23)c(C)c1 (stereo not shown) : > 4.77

pIC50 in this record for `Cc1ccc(S(=O)(=O)c2nnn3c2[nH]c(=O)c2ccc(N4CCN(CC(=O)N5CCNCC5)CC4)cc23)c(C)c1` : > 4.75

pIC50 in this record for `CCCCCNC(=O)CN1CCN(c2ccc3c(=O)[nH]c4c(S(=O)(=O)c5ccc(C)cc5C)nnn4c3c2)CC1` : 4.05 to 4.75

pIC50 in this record for `Cc1ccc(S(=O)(=O)c2nnn3c2[nH]c(=O)c2ccc(N4CCN(CC(=O)NCCOCCOCCO)CC4)cc23)c(C)c1` : 4.10 to 4.80

pIC50 in this record for `Cc1ccc(S(=O)(=O)c2nnn3c2[nH]c(=O)c2ccc(N4CCN(CC(=O)N5CCCOCC5)CC4)cc23)c(C)c1` : 4.06 to 4.76

pIC50 in this record for Cc1ccc(S(=O)(=O)c2nnn3c2[nH]c(=O)c2ccc(N4CCN(CC(=O)N5CCCC(CN)C5)CC4)cc23)c(C)c1 (stereo not shown) : > 4.77

----------
Answer each item with its documented IC50.
Target or test system: AgrA (Staphylococcus aureus)
Construct: endogenous in cells; host or cells: S. aureus USA300 strain UAMS-1625 carrying a P3-lacZ reporter plasmid
Assay remarks: cell-based
Parameters: species or system S. aureus
Condition set: IC50 without HSA, LB medium, no human serum albumin, 18 hours incubation

IC50 in this record for `Cc1ccc(S(=O)(=O)c2nnn3c2[nH]c(=O)c2ccc(N4CCN(CC(=O)NCc5ccco5)CC4)cc23)c(C)c1` : < 1.74 µM

IC50 in this record for `C#CCNC(=O)CN1CCN(c2ccc3c(=O)[nH]c4c(S(=O)(=O)c5ccc(C)cc5C)nnn4c3c2)CC1` : 1.87 to 9.37 µM

IC50 in this record for `Cc1ccc(S(=O)(=O)c2nnn3c2[nH]c(=O)c2ccc(N4CCN(CC(=O)NCC5CCCC5)CC4)cc23)c(C)c1` : < 1.73 µM

IC50 in this record for `Cc1ccc(S(=O)(=O)c2nnn3c2[nH]c(=O)c2ccc(N4CCN(CC(=O)NC5CCCC5)CC4)cc23)c(C)c1` : < 1.77 µM

IC50 in this record for `Cc1ccc(S(=O)(=O)c2nnn3c2[nH]c(=O)c2ccc(N4CCN(CC(=O)N5CCCC5)CC4)cc23)c(C)c1` : < 1.82 µM

IC50 in this record for CCN1CCCC1CNC(=O)CN1CCN(c2ccc3c(=O)[nH]c4c(S(=O)(=O)c5ccc(C)cc5C)nnn4c3c2)CC1 (stereo not shown) : 1.65 to 8.24 µM

IC50 in this record for `CCCNC(=O)CN1CCCN(c2ccc3c(=O)[nH]c4c(S(=O)(=O)c5ccc(C)cc5C)nnn4c3c2)CC1` : < 1.81 µM

----------
Target or test system: AgrA (Staphylococcus aureus, UniProt P0A0I7)
Construct: endogenous in cells; host or cells: S. aureus USA300 strain UAMS-1625 carrying a P3-lacZ reporter plasmid
Assay remarks: cell-based
Parameters: species or system S. aureus
Condition set: IC50 without HSA, LB medium, no human serum albumin, 18 hours incubation
pIC50: −log10 of the molar value.
Answer each item with its documented pIC50.

pIC50 in this record for `Cc1ccc(S(=O)(=O)c2nnn3c2[nH]c(=O)c2ccc(N4CCN(CC(=O)NCCN)CC4)cc23)c(C)c1` : 5.03 to 5.73

pIC50 in this record for `Cc1ccc(S(=O)(=O)c2nnn3c2[nH]c(=O)c2ccc(N4CCN(CC(=O)N5CCCCC5)CC4)cc23)c(C)c1` : > 5.75

pIC50 in this record for `CNC(=O)CN1CCN(c2ccc3c(=O)[nH]c4c(S(=O)(=O)c5ccc(C)cc5C)nnn4c3c2)CC1` : > 5.71

pIC50 in this record for `Cc1ccc(S(=O)(=O)c2nnn3c2[nH]c(=O)c2ccc(N4CCN(CC(=O)N5CCC(F)(F)CC5)CC4)cc23)c(C)c1` : > 5.78

pIC50 in this record for `Cc1ccc(S(=O)(=O)c2nnn3c2[nH]c(=O)c2ccc(N4CCN(CC(=O)N5CCCC(=O)CC5)CC4)cc23)c(C)c1` : > 5.77

pIC50 in this record for `Cc1ccc(S(=O)(=O)c2nnn3c2[nH]c(=O)c2ccc(N4CCCN(CCC(=O)N5CCCC5)CC4)cc23)c(C)c1` : 5.06 to 5.76

pIC50 in this record for `Cc1ccc(S(=O)(=O)c2nnn3c2[nH]c(=O)c2ccc(N4CCN(CC(=O)NCCCC5CCCCC5)CC4)cc23)c(C)c1` : 5.09 to 5.79

pIC50 in this record for `Cc1ccc(S(=O)(=O)c2nnn3c2[nH]c(=O)c2ccc(N4CCCN(CC(=O)NC5CCC5)CC4)cc23)c(C)c1` : > 5.75

pIC50 in this record for `Cc1ccc(S(=O)(=O)c2nnn3c2[nH]c(=O)c2ccc(N4CCN(CC(=O)N5CCCOCC5)CC4)cc23)c(C)c1` : > 5.76

pIC50 in this record for Cc1ccc(S(=O)(=O)c2nnn3c2[nH]c(=O)c2ccc(N4CCN(CC(=O)N5CCC(CN)C5)CC4)cc23)c(C)c1 (centres unmarked) : 5.06 to 5.76

pIC50 in this record for `Cc1ccc(S(=O)(=O)c2nnn3c2[nH]c(=O)c2ccc(N4CCN(CC(=O)N5CC(C6CC6)C5)CC4)cc23)c(C)c1` : > 5.76

pIC50 in this record for `Cc1ccc(S(=O)(=O)c2nnn3c2[nH]c(=O)c2ccc(N4CCN(CC(=O)NCCCC(F)(F)F)CC4)cc23)c(C)c1` : > 5.78

pIC50 in this record for `Cc1ccc(S(=O)(=O)c2nnn3c2[nH]c(=O)c2ccc(N4CCCN(CC(=O)NC5CCCC5)CC4)cc23)c(C)c1` : 5.06 to 5.76

pIC50 in this record for `Cc1ccc(S(=O)(=O)c2nnn3c2[nH]c(=O)c2ccc(N4CCN(CC(=O)NCCN5CCOCC5)CC4)cc23)c(C)c1` : 5.09 to 5.78

pIC50 in this record for `Cc1ccc(S(=O)(=O)c2nnn3c2[nH]c(=O)c2ccc(N4CCN(CC(=O)N5CCCN(C)CC5)CC4)cc23)c(C)c1` : 5.07 to 5.77

pIC50 in this record for `Cc1ccc(S(=O)(=O)c2nnn3c2[nH]c(=O)c2ccc(N4CCN(CC(=O)N5C[C@H]6CNC[C@H]6C5)CC4)cc23)c(C)c1` : 5.07 to 5.77

pIC50 in this record for `Cc1ccc(S(=O)(=O)c2nnn3c2[nH]c(=O)c2ccc(N4CCN(CC(=O)N5CCC(CN)CC5)CC4)cc23)c(C)c1` : 5.07 to 5.77

pIC50 in this record for `Cc1ccc(S(=O)(=O)c2nnn3c2[nH]c(=O)c2ccc(N4CCN(CC(=O)NCCOCCOCCO)CC4)cc23)c(C)c1` : 5.10 to 5.80

pIC50 in this record for `O=C(CN1CCN(c2ccc3c(=O)[nH]c4c(S(=O)(=O)c5ccc(C(F)(F)F)cc5)nnn4c3c2)CC1)N1CCCC1` : 5.07 to 5.77

pIC50 in this record for `Cc1ccc(S(=O)(=O)c2nnn3c2[nH]c(=O)c2ccc(N4CCN(CC(=O)NCCn5cccc5)CC4)cc23)c(C)c1` : > 5.77

pIC50 in this record for `Cc1ccc(S(=O)(=O)c2nnn3c2[nH]c(=O)c2ccc(N4CCN(CC(=O)N5CCCN(C(C)C)CC5)CC4)cc23)c(C)c1` : > 5.79

pIC50 in this record for `Cc1ccc(S(=O)(=O)c2nnn3c2[nH]c(=O)c2ccc(N4CCCN(CC(=O)N5CCNCC5)CC4)cc23)c(C)c1` : 5.06 to 5.76

pIC50 in this record for `Cc1ccc(S(=O)(=O)c2nnn3c2[nH]c(=O)c2ccc(N4CCN(CC(=O)NC5CCNCC5)CC4)cc23)c(C)c1` : 5.06 to 5.76

pIC50 in this record for `Cc1ccc(S(=O)(=O)c2nnn3c2[nH]c(=O)c2ccc(N4CCN(CC(=O)NCCC(F)(F)F)CC4)cc23)c(C)c1` : > 5.77

pIC50 in this record for Cc1ccc(S(=O)(=O)c2nnn3c2[nH]c(=O)c2ccc(N4CCN(CC(=O)NC5CCCNC5)CC4)cc23)c(C)c1 (centres unmarked) : 5.06 to 5.76

pIC50 in this record for `Cc1ccc(S(=O)(=O)c2nnn3c2[nH]c(=O)c2ccc(N4CCN(CC(=O)N5CCC6(CCCC6)C5)CC4)cc23)c(C)c1` : > 5.78
